Tested on: HCT-15 colon
Test: NCI-60 one-dose screen, 48 h (100 = growth as untreated, 0 = no growth, -100 = all killed)
Conditions: 10 µM unless noted
The panel holds about 83,000 compounds, 20% with a hit somewhere; the sample as a whole holds those more often.
Hi! Just check whether growth is below 40%. Below gives Condition met, equal or above gives Condition not met.

[[record]]
molecule = "CN([N-]C(=O)CC(=O)[N-]N(C)C(=S)c1ccccc1)C(=S)c1ccccc1.[Cu+2]"
target_of_assay = "HCT-15 colon"
category = "Condition met"


Given the entry O=C1c2ccccc2-c2cn(Cc3ccccc3)c3cccc(c23)C1c1cccnc1 (stereo not given) , would its reported growth be below 40%?
Condition met

Given the entry COc1cc(-c2nc3ccccc3o2)cc(CN2CCN(c3ccccc3)CC2)c1O , would its reported growth be below 40%?
Condition not met

Given the entry NS(=O)(=O)c1cc(Br)c2c(c1)S(=O)(=O)NCN2 , would its reported growth be below 40%?
Condition not met

Given the entry COc1ccc(-c2nn(-c3ccc(NC(=O)c4ccc(Cl)c(Cl)c4)cc3)cc2-c2ccncc2)cc1Cl , would its reported growth be below 40%?
Condition met

Given the entry COc1cc2oc(-c3ccc(O)cc3)cc(=O)c2c(O)c1I , would its reported growth be below 40%?
Condition not met

Given the entry CCCCCCCCCCCCSC1=CC(=O)C=CC1=O , would its reported growth be below 40%?
Condition not met

Given the entry O=C1/C(=C/c2ccc([N+](=O)[O-])cc2)Oc2ccc(O)cc21 , would its reported growth be below 40%?
Condition not met

Given the entry COc1ccc(C2=NOC(CC(=O)N(CCO)CCO)C2)cc1OC1CCCC1 (stereo not given) , would its reported growth be below 40%?
Condition not met

Given the entry Clc1cccc(Cl)c1Nc1ccc2nnc(-c3ccncc3)n2n1 , would its reported growth be below 40%?
Condition not met
